species: Rattus norvegicus; experiment: DrugMatrix - Regimen: Daily Repeat; assay type: toxicity, organism-based, Sprague-Dawley; parameters: regimen Daily Repeat, gender Male, age 6-8 weeks; conditions: in vivo, po, 0 mg/kg, 120 h, tissue Blood, route oral GAVAGE, dose level Control, time 5 day, vehicle .5 % CMC
PROPERTY LABEL: MONOCYTE (%)
# unit: % | format: bare number

>  <COMPOUND>
CN1CCN(C2=Nc3cc(Cl)ccc3Nc3ccccc32)CC1 [CLOZAPINE]

>  <QUANTITY UNIT>
%

>  <MONOCYTE>
0.83

$$$$

Please find the next compound below.
// COc1cc(OC)c(C(=O)CCCN2CCCC2)c(OC)c1 [BUFLOMEDIL] : MONOCYTE value = 0.33
